Source: the RNAGym collection of RNA variant scans (doi:10.7554/elife.90254)

B1: LINE1-full (parent)
chain: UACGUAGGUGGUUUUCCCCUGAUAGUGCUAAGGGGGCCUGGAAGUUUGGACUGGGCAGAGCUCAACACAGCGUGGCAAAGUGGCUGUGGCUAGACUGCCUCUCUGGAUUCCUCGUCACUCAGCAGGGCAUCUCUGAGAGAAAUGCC

- Variants of: B1
- PROCEDURE SUMMARY: self-cleavage, relative activity (ratio to wild type); higher = more cleavage; in vitro, sequencing; the parent is a self-cleaving ribozyme
Each record's class is read off its self-cleavage using these ranges: low class (below 0.4), middle class (0.4 to below 1), high class (1 or more)

Entry A6G A42U belongs to which category?
middle class

Entry A30G U96A belongs to which category?
low class

Entry G55C U115C belongs to which category?
low class

Entry C99U A141G belongs to which category?
middle class

Entry G55U A117U belongs to which category?
middle class

Entry U39A U73C belongs to which category?
high class

Entry A31G G139U belongs to which category?
high class

Entry U12C G82A belongs to which category?
high class

Entry U45C G126U belongs to which category?
high class

Entry A117C U119G belongs to which category?
high class

Entry U26C A69C belongs to which category?
low class

Entry G72U C113U belongs to which category?
high class

Entry U62A A94G belongs to which category?
low class

Entry U5C A57G belongs to which category?
middle class

Entry U12C G105A belongs to which category?
high class

Entry A121U G122A belongs to which category?
low class

Entry U52C U62C belongs to which category?
low class

Entry G55C C76A belongs to which category?
low class

Entry A79U U132A belongs to which category?
high class

Entry U45C U100A belongs to which category?
middle class

Entry U45A U112A belongs to which category?
high class

Entry A69U G89U belongs to which category?
low class

Entry U14A A142G belongs to which category?
middle class

Entry A69G U134C belongs to which category?
middle class

Entry G40A U87A belongs to which category?
low class

Entry U1C A59U belongs to which category?
middle class

Entry C66U C111U belongs to which category?
low class

Entry U29C U45G belongs to which category?
middle class

Entry C71U belongs to which category?
middle class

Entry U29G A124G belongs to which category?
middle class

Entry U26A A142G belongs to which category?
high class

Entry A31G U100C belongs to which category?
high class

Entry U9G U45C belongs to which category?
low class

Entry A30U A124C belongs to which category?
high class

Entry G32A A107G belongs to which category?
high class

Entry C95A C146U belongs to which category?
low class

Entry C63A U100C belongs to which category?
low class

Entry U9C A42G belongs to which category?
high class

Entry U9C A117U belongs to which category?
high class

Entry G49A A107G belongs to which category?
middle class

Entry A59G U143G belongs to which category?
low class

Entry U15A G60U belongs to which category?
low class

Entry A78G A129G belongs to which category?
high class

Entry A22U A43U belongs to which category?
high class

Entry C28G U45C belongs to which category?
high class

Entry A31G U39A belongs to which category?
middle class
